- TEST_TARGET: GPR73 (prokineticin 1 receptor) (Homo sapiens)
- Construct: expressed in transfected cells; host or cells: HEK 293
- Sequence (Q8TCW9 whole entry, species assumed): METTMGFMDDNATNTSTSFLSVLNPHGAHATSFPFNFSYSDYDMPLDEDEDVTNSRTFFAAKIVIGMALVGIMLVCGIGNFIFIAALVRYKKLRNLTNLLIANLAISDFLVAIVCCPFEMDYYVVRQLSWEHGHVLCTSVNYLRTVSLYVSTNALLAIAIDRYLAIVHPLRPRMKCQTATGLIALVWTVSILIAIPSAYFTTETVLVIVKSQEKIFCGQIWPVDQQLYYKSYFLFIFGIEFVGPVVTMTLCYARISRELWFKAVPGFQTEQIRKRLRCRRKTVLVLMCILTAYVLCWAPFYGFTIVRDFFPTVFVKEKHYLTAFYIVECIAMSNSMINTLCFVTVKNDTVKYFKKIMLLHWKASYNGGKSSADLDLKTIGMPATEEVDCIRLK
- EXPERIMENTAL_PROTOCOL: PK1 functional assay: Ca2+ mobilization on the FLIPR
- Assay type: cell-based
- RECORDED_CONDITIONS: 10 µM; read-out: Ca^2+ Mobilization % Inh @10 µM
MEASUREMENT_NAME: inhibition at 10 µM (%)
Kindly answer with a numeric value in %, unit omitted.

Below are worked cases with known answers.
COMPOUND	UNIT	inhibition at 10 µM
NC1=Nc2ccc(F)cc2CN1CCNc1nc(=O)n(Cc2ccc(F)cc2)c(=O)n1Cc1ccc(OC(F)F)cc1 [Cpd 45]	%	101
COc1ccc(Cn2c(C(=O)NCCn3c(N)nc4ccccc43)cc(=O)n(Cc3ccc(OC)cc3)c2=O)cc1 [Cpd 13]	%	51
Nc1nc2cc(C(F)(F)F)ccc2n1CCNc1nc(=O)n(Cc2ccc(F)cc2)c(=O)n1Cc1ccc(OC(F)F)cc1 [Cpd 27]	%	85
COc1ccc(Cn2c(NCCn3c(N)nc4ccccc43)nc(=O)n(Cc3ccc4c(c3)nnn4C)c2=O)cc1 [Cpd 77]	%	99

The reported value for COc1ccc(Cn2c(NCCN3Cc4ccccc4N=C3N)nc(=O)n(Cc3ccc(F)cc3)c2=O)cc1 [Cpd 12] in terms of inhibition at 10 µM is 94

The reported value for COc1ccc(Cn2c(NCCn3c(N)nc4c(F)cccc43)nc(=O)n(Cc3ccc(F)cc3)c2=O)cc1 [Cpd 11] in terms of inhibition at 10 µM is 89

The reported value for Nc1nc2ccc(F)c(F)c2n1CCNc1nc(=O)n(Cc2ccc(F)cc2)c(=O)n1Cc1ccc(OC(F)F)cc1 [Cpd 29] in terms of inhibition at 10 µM is 83
